Values from patent US20230072683A1

target-system: PI3K-δ (PI3K(p1108/p857) (h)) (Homo sapiens)
Sequence (O00329 whole entry): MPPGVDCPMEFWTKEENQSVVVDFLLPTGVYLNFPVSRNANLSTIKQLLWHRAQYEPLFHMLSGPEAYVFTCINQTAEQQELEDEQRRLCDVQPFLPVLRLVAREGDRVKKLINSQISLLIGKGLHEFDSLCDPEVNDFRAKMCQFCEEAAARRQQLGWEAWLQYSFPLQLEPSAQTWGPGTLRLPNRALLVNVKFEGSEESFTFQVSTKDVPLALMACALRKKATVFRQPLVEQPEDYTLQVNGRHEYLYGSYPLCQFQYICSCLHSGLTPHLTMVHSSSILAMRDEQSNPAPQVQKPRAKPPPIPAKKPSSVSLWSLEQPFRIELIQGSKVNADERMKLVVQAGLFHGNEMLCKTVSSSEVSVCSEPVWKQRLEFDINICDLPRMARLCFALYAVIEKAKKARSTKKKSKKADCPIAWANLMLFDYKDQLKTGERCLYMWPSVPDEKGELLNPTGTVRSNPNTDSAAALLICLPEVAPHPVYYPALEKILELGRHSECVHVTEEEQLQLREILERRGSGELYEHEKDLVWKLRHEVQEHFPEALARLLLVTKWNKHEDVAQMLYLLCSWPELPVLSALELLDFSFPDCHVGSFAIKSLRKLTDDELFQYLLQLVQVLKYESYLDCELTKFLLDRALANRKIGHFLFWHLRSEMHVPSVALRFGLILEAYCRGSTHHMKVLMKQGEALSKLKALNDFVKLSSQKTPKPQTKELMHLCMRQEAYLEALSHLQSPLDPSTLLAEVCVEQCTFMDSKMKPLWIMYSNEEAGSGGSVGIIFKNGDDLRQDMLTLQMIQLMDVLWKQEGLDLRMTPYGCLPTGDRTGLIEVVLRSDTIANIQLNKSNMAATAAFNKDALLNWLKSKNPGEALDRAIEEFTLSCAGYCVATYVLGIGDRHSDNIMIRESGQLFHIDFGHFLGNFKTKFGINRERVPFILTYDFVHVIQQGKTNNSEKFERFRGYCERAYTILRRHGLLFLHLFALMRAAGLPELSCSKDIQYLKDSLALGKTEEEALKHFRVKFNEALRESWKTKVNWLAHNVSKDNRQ
Sequence (P27986 whole entry partner): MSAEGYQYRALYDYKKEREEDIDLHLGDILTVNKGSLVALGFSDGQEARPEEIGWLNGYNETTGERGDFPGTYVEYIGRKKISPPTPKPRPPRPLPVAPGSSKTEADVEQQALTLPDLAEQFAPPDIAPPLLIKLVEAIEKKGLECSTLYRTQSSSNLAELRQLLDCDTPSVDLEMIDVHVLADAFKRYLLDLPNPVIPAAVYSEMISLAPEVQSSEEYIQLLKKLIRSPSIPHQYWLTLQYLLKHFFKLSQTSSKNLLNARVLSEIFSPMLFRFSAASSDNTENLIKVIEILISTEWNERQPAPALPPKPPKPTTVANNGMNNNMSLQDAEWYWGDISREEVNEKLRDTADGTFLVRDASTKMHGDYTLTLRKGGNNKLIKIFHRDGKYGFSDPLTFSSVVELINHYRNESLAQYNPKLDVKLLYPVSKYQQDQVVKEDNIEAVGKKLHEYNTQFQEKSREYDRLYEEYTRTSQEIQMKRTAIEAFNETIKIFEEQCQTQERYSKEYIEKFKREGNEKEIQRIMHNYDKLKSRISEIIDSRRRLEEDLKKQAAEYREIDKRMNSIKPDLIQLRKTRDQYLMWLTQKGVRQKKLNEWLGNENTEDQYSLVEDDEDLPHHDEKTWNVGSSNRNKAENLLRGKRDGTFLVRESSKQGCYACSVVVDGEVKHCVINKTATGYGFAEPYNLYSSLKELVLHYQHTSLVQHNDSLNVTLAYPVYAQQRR
assay-name: Evaluation of inhibitory activity against PI3K-δ (HTRF kinase assay)
Format: biochemical
protocol-conditions: compound concentration 0.1 μM; read-out: EXP_VALUE(% Inhibition) PI3K-δ 0.1 μM
recorded-endpoint: inhibition at 0.1 µM (%)

INSERT INTO assay_data (molecule, data_value) VALUES
  ('C[C@H](Nc1ncnc2[nH]ccc(=O)c12)c1c(Cl)c2cccc(N(C)C3CCCCC3)c2c(=O)n1-c1ccccc1', 30);

(A) C[C@H](Nc1ncnc2[nH]ccc(=O)c12)c1c(Cl)c2cccc(-c3ccc4c(c3)OCCO4)c2c(=O)n1-c1ccccc1
(B) C[C@H](Nc1ncnc2[nH]ccc(=O)c12)c1c(Cl)c2cccc(N3CCN(c4ccncc4)CC3)c2c(=O)n1-c1ccccc1
Identify the item whose inhibition at 0.1 µM is the smaller number: A or B Write the label of whichever entry you select.
B
(B: 61%, A: 102%)
